Reference source: ChEMBL document CHEMBL1136773

tested_on: Estrogen receptor (Homo sapiens) (UniProt P03372)
Sequence (P03372 whole entry): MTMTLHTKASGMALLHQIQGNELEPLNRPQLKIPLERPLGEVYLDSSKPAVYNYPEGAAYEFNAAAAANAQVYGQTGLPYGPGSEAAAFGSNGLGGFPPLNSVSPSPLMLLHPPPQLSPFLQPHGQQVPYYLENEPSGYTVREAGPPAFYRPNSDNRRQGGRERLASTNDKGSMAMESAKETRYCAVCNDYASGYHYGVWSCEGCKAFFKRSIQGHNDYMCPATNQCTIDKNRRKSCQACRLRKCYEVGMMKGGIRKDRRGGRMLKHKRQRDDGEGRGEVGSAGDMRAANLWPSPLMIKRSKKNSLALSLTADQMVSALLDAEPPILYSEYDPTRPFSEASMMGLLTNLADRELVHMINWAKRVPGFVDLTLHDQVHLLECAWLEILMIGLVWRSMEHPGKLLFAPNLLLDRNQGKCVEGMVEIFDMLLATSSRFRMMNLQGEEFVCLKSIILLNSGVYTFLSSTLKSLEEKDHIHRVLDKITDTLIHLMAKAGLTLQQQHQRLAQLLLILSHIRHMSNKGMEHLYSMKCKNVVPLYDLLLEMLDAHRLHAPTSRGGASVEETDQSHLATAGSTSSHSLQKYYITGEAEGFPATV
measurement_notes: Transcriptional agonistic efficacy against ER alpha at 10e-6 M by cotransfection in HEC-1 cells
Format: functional, cell-based
attribute_measured: Efficacy (%)

- molecule: "CC12CCC(CC1=C(c1ccc(O)cc1)c1ccc(O)cc1)C2(C)C (stereo not drawn)"
  unit: "%"
  Efficacy: 28
- molecule: "Oc1ccc(C(=C2C3CC4CC(C3)CC2C4)c2ccc(O)cc2)cc1"
  unit: "%"
  Efficacy: 20
- molecule: "Oc1ccc(C(=C2C3CCCC2CCC3)c2ccc(O)c(O)c2)cc1"
  unit: "%"
  Efficacy: 20

----------
tested_on: Estrogen receptor beta (Homo sapiens) (UniProt Q92731)
Sequence (Q92731 whole entry): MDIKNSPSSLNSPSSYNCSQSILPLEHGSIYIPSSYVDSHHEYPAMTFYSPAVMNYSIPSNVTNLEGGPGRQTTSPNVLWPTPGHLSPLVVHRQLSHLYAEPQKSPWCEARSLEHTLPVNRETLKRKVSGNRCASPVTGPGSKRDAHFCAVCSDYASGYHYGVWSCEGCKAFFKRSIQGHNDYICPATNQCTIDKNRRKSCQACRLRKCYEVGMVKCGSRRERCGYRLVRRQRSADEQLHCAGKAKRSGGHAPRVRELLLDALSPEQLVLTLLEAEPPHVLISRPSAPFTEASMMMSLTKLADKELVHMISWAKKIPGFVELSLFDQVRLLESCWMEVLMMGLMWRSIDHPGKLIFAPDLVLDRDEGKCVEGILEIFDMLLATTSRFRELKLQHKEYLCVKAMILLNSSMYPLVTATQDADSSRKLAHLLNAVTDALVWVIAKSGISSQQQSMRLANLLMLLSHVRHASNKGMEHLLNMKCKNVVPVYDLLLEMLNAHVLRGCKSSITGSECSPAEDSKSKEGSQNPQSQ
measurement_notes: Binding affinity for purified human Estrogen receptor beta was determined using a competitive radiometric binding assay with estradiol
attribute_measured: RBA (%)

- compound: "Oc1ccc(C(c2ccc(O)cc2)C2C3CCCC2CCC3)cc1 (stereo not drawn)"
  RBA / %: 13

a = Oc1ccc(C(c2ccc(O)cc2)C2CCCCC2)cc1
b = Oc1ccc(C(=C2C3CCCC2CCC3)c2ccccc2)cc1
c = CC12CCC(CC1=C(c1ccc(O)cc1)c1ccc(O)cc1)C2(C)C (stereo not drawn)
d = CC1(C)CC(=C(c2ccc(O)cc2)c2ccc(O)cc2)C[C@]2(C)C(C)(C)[C@H]3CC[C@@]12C3
e = Oc1ccc(C(=C2CC3CC2C2CCCC32)c2ccc(O)cc2)cc1 (stereo not drawn)
Please list these compounds in decreasing order of RBA. Write the labels out in the order the request specifies. c, e, b, d, a
(c: 189%, e: 125%, b: 35%, d: 13%, a: 9%)
